Reported phosphorylation enrichment values for the following sequences.
STUDY_SYSTEM: MERTK (UniProt Q12866)
Sequence (Q12866 whole entry, looked up): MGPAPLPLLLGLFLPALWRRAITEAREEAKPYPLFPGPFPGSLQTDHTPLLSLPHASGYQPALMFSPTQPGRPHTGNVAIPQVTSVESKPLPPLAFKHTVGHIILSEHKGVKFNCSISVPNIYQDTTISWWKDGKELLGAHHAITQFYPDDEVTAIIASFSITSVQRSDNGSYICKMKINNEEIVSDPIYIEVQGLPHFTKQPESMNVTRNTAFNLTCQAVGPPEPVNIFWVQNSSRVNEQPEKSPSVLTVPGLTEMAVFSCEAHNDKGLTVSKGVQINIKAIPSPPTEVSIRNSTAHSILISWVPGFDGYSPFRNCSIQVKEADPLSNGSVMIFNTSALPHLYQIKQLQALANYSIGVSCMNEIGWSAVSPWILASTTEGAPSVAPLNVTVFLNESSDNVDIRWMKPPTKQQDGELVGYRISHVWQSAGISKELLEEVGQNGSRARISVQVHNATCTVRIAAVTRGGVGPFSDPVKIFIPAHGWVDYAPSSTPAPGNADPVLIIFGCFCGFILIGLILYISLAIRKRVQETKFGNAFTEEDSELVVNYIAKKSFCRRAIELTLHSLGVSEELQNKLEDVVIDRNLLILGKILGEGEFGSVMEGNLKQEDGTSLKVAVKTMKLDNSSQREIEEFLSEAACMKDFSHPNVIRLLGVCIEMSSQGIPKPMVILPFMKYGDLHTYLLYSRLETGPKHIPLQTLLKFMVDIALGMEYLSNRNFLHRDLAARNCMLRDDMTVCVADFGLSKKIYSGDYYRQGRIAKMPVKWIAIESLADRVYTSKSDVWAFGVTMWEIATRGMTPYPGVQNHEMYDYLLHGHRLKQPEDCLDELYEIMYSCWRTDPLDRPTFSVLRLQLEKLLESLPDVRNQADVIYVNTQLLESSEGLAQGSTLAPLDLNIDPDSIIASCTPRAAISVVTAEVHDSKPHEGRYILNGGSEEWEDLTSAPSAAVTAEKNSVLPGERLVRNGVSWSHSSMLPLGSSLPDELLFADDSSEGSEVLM
EXPERIMENT_SUMMARY: phosphorylation enrichment, bacterial display (enrichment ratio); higher = better substrate or ligand; peptides without Tyr show the background;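 further: 11-residue human phosphosite peptides and single-mutation variants displayed on the E. coli surface, counted by deep sequencing, each peptide's frequency after selection divided by its frequency in the unselected input library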;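 further: frequency after pTyr selection over input frequency; kinase dosed for 20-30% of maximal phosphorylation in three min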
READOUT_KIND: phosphorylation enrichment

{"RESIDUE_CODES": "PIFEGYGLPHA [ACTA1_Y171_A172G_YF]", "STUDY_SYSTEM": "MERTK (UniProt Q12866)", "REPORTED": 0.641}
{"RESIDUE_CODES": "SFPSTYRFERG [INPPL1_Y661_P659S_YF]", "STUDY_SYSTEM": "MERTK (UniProt Q12866)", "REPORTED": 0.392}
{"RESIDUE_CODES": "RETSLYKACER [ASB2_Y162_P160S]", "STUDY_SYSTEM": "MERTK (UniProt Q12866)", "REPORTED": 0.719}

* * *

STUDY_SYSTEM: Jak2 (UniProt O60674)
Sequence (O60674 whole entry, looked up): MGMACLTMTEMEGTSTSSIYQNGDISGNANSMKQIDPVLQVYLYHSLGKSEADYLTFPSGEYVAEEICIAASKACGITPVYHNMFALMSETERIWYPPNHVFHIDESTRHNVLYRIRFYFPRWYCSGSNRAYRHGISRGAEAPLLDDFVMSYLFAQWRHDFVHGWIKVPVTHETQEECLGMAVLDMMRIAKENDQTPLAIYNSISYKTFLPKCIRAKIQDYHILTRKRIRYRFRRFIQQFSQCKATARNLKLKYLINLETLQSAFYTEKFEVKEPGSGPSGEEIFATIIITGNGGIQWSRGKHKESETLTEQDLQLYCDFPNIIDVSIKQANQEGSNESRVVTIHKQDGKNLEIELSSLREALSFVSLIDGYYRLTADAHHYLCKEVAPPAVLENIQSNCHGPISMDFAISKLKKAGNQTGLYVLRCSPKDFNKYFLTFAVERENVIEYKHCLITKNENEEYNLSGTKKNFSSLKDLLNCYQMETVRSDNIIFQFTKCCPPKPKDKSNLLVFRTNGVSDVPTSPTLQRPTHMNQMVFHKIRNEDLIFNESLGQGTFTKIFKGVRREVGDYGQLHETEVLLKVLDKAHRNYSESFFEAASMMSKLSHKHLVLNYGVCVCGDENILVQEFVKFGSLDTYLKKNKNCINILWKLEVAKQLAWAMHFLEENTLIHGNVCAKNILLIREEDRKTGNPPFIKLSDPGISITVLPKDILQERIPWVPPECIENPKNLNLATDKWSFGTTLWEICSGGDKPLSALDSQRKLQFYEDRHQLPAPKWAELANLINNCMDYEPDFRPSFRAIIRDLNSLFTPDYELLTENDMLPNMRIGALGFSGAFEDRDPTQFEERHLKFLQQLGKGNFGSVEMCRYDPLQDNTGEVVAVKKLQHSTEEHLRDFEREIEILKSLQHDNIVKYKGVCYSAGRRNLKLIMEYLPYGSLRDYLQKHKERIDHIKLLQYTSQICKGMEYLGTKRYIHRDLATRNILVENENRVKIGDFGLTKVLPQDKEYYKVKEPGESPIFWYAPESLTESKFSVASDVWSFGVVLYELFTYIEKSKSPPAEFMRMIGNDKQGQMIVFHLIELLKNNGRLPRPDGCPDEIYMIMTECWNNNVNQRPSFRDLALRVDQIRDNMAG
EXPERIMENT_SUMMARY: phosphorylation enrichment, bacterial display (enrichment ratio); higher = better substrate or ligand; peptides without Tyr show the background
phosphorylation enrichment values by entry

{"RESIDUE_CODES": "NAPNSYGRRLI [CDKN2A_Y44_P48L]", "phosphorylation enrichment": 0.531}
{"RESIDUE_CODES": "IPTPAYQSLPA [PDCD6IP_Y727_S730L]", "phosphorylation enrichment": 0.616}
{"RESIDUE_CODES": "DNPAKYFILEN [DPP10_Y512_S517N]", "phosphorylation enrichment": 1.41}
{"RESIDUE_CODES": "RKPDIYERLAS [MCM4_Y459]", "phosphorylation enrichment": 0.702}
{"RESIDUE_CODES": "AVLSLYASDRT [ACTA1_Y145_G148D]", "phosphorylation enrichment": 0.884}
{"RESIDUE_CODES": "QKPLGYFRVNL [GALE_Y104_D103G_YF]", "phosphorylation enrichment": 1.16}
{"RESIDUE_CODES": "AVLQPYIFVAT [CFTR_Y1014]", "phosphorylation enrichment": 1.84}
{"RESIDUE_CODES": "FPPDGYSRHCE [CTNND1_Y213_Y217C_YF]", "phosphorylation enrichment": 0.741}
{"RESIDUE_CODES": "FQEKGYNKEPR [CHRND_Y38_L42P]", "phosphorylation enrichment": 0.691}
{"RESIDUE_CODES": "RLPSGYGLAYR [DLK1_Y262]", "phosphorylation enrichment": 0.46}
{"RESIDUE_CODES": "AKKKMYSRKTK [AGXT_Y231]", "phosphorylation enrichment": 0.455}
{"RESIDUE_CODES": "QQMGTYGVRAA [ICAM2_Y260_R256Q]", "phosphorylation enrichment": 0.313}
{"RESIDUE_CODES": "HTDDGYMPMSP [IRS1_Y612]", "phosphorylation enrichment": 1.37}
{"RESIDUE_CODES": "IVKAFYVHARA [AIPL1_Y268_R270H_YF]", "phosphorylation enrichment": 0.955}
{"RESIDUE_CODES": "HNELYYEEAEH [VANGL1_Y345]", "phosphorylation enrichment": 1.32}
{"RESIDUE_CODES": "PGAPAYRVLME [MYO5A_Y1245]", "phosphorylation enrichment": 1.06}
{"RESIDUE_CODES": "FLTLHYDAKPQ [ANG_Y38_Q36L]", "phosphorylation enrichment": 0.669}
{"RESIDUE_CODES": "KIKGRYEKCEP [KRT26_Y119_W118R]", "phosphorylation enrichment": 1.37}
{"RESIDUE_CODES": "TVHCDYLNISH [TAF1L_Y1385_P1389S]", "phosphorylation enrichment": 1.29}
{"RESIDUE_CODES": "KMATAYIRSMS [BCO1_Y264_R267S]", "phosphorylation enrichment": 0.518}
{"RESIDUE_CODES": "TTKGAYSLSVR [YES1_Y194_I198V]", "phosphorylation enrichment": 0.511}
{"RESIDUE_CODES": "KVQVSYKGETK [HSPA1A_Y107]", "phosphorylation enrichment": 0.428}
{"RESIDUE_CODES": "IKSSIYDNRKE [ARAP2_Y380]", "phosphorylation enrichment": 0.586}
{"RESIDUE_CODES": "EYFDGYWGYSV [ITGA2B_Y265]", "phosphorylation enrichment": 12.3}
{"RESIDUE_CODES": "GVRFIYTIDGS [DCX_Y105_YF]", "phosphorylation enrichment": 1.45}
{"RESIDUE_CODES": "ESLRRYLENGK [HLA-B_Y195_W191S]", "phosphorylation enrichment": 0.519}
